- target_or_system: SARS-CoV-2 Spike protein (SARS-CoV-2, UniProt P0DTC2 14-1208)
- experiment: HT-SPR (Carterra LSA), mAb coupled to chip, Spike in solution, 1:1 Langmuir fit
Measured kon, listed per entry for reference.
# output: bare number, implied unit M⁻¹ s⁻¹

The examples below pair each entry with its known result.
binder	result_unit	kon
mAb 1585 (antibody, V domains shown, human IgG1) VH: QVQLVESGGGVVQPGRSLRLSCAASGFTFSRFTLHWVRQAPGKGLEWVAVISYDGSNKYYADSVKGRFTISRDNSKSTLYLQMNSLRAEDTGVYYCARDPSTVTGYFDYWGQGTLVTVSS VL: SYVLTQPPSVSVAPGKTAKISCGGDSIGSKSVHWYQQKPGQAPVLVIYYDNDRPSGIPERFSGSNSGNTATLTISRVEAGDEADYYCQVWDIGVVFGGGTKLTVLG	M⁻¹ s⁻¹	586000
mAb 1444 (antibody, V domains shown, human IgG1) VH: QVQLVQSGAEVKKPGASVKVSCKASGYTFTAYYMHWVRQAPGQGLEWMGWINPNSDDTNYAQKFQGRVTMTRDTSISTAYMELSRLRSDDTAVYYCAREEGVFTIGDRYFDLWGRGTLVSVSS VL: QTVVTQEPSFSVSPGGTVTLTCGLSSGSVSTSYYPSWYQQTPGQAPRTLIYNTNTRSSGVPDRFSGSILGNKAALTITGAQADDESDYYCVLYMGSGIWVFGGGTKLTVLG	M⁻¹ s⁻¹	453000

[in] Need kon of mAb 1495 (antibody, V domains shown, human IgG1) VH: QVQLVESGGGVVQPGRSLRLSCTASGFTFSSYAMHWVRQAPGKGLEWVAVISYDGNNKYYGDSVKGRFTISRDNSKNTLYLQMNSLRAEDTAVYYCAKGADTPHYSGYHFLSVGYYFYGMDVWGQGTTVTVSS VL: DIQMTQSPSSLSASVGDRVTITCRASQSISYYLNWYQQKPGKAPQLLIYAASSLQSGVPSRFSGSRSGTDFTLTISSLQPEDFATYYCQQSYSTPFTFGPGTKVDIKR , thanks.
[out] 103000
